Test system: SN12C renal
Test: NCI tumour cell line growth inhibition, 48 h
observed_property: TGI

Cc1ccc2nnc(NS(=O)(=O)c3cc(C)c(Cl)cc3S)n2n1: > 100 µM

Look up TGI for the entries below, preserving their order.
1. CN1C(=O)C(O)C[C@@H]1c1ccc(F)cc1 (stereo partly specified)
2. CC(=O)N1c2ccc(-c3ccc(C(=O)O)cc3)cc2[C@H](Nc2ccc(Cl)cc2)C[C@@H]1C
3. C/C=C1/C(=O)O[C@]23C=C[C@@H]4C(C(=O)OC)=CO[C@H](O[C@@H]12)[C@@H]43
4. CC(C)Cn1cnc2c(SCc3ccccn3)nc(N)nc21
5. OCC1(CNc2cc(Cl)ncn2)CCC1
6. Cc1nc2c(s/c(=N\N)n2-c2ccccc2)c(=O)n1C
7. COC(=O)C1=C(O)C(C(=O)OC)[C@@]2(O)[C@@H](C(=O)OC)C(c3ccccc3Cl)C[C@@H]1[C@@H]2C(=O)OC (stereo partly specified)

Solution:
> 100 µM
99 µM
4.88 µM
> 100 µM
> 100 µM
> 100 µM
19.8 µM

Quick request: TGI for each listed item, please.
1. C#CC1(O)CC(c2ccccc2)N(C)C(c2ccccc2)C1 (stereo unspecified)
2. CC(=O)Nc1nc(C)c(-c2cc3c(c(S(C)(=O)=O)c2)C(=O)N([C@@H](C)C2CC2)C3)s1

Solution:
> 100 µM
> 100 µM
